experiment-notes: Toxicity liver stage against HepG2, at 10uM
Assay type: cell-based
Set-up: test concentration 10 uM, cell line HepG2-A16-CD81EGFP
stated-conditions: human, HepG2-A16-CD81EGFP cells; read-out: INHIBITION
measurement-label: cytotoxicity at 10 µM (%)

smiles-str | recorded-measurement
CCC(CC)C(=O)N1CCC2(CC1)c1ccccc1[C@@H](OC)[C@@H]2O | 6.75
CCn1c(C)nnc1SCCn1cc(-c2nccs2)nn1 | 2.91
O=S(=O)(Cc1ccccc1)N1CCCn2cnc(CN3CCCC3)c2C1 | 3.3

* * *

This listing pairs compounds with measured cytotoxicity at 10 µM.
experiment-notes: Toxicity liver stage against HepG2, at 10uM
Type: cell-based
Design: test concentration 10 uM, cell line HepG2-A16-CD81EGFP
stated-conditions: human, HepG2-A16-CD81EGFP cells; read-out: INHIBITION

compound | cytotoxicity at 10 µM, %
CCc1nc2c(c(C)c(C)n2Cc2cccnc2)c(N)c1C | 6.7
CNC(=O)c1cccc(CNC(=O)C2CC(=O)N(CCN(C)C)C2)c1 (stereo not drawn) | 1.01
O=C(c1cncnc1)N1CCCC(c2nccs2)C1 (stereo not drawn) | 6.55
Cc1nc(CN2CCCC(NCc3ccc4ccccc4c3)C2)no1 (stereo not drawn) | -0.375
O=C(C1CC=CC1)N1CCc2ncnc(-c3ccncc3)c2CC1 | 2.31
CC(C)c1cc(N2CC[C@H](F)C2)n2nccc2n1 | -2.56
CC(C)c1nc(CC(=O)Nc2cnccc2O)cs1 | 9.89
CC(C)NC(=O)N1CCN(c2ccc(Cl)nn2)C(=O)C1 | 5.01
CCCOc1ccc(Cl)cc1C(=O)N1CCC(n2cncn2)CC1 | 2.93
Cn1ccnc1CN1CCC2(COCCN(S(=O)(=O)C3CC3)C2)C1 (stereo not drawn) | 12.7
CC(=O)NC(Cc1c[nH]c2cc(F)ccc12)C(=O)Nc1nncs1 (stereo not drawn) | 1.22
CCN(Cc1ccc(F)c(F)c1)Cc1nc2c(cnn2C)c(=O)[nH]1 | -4.18
CN(Cc1ccc(F)cc1)CC1(O)CCN(C(=O)c2cccn2C)C1 (stereo not drawn) | -3.19
Cc1ccc(-c2ccc(C(=O)NCC(N)=O)c(F)c2)cc1 | -0.758
O=C(c1ccco1)N1CC[C@@H](N2CCOCC2)[C@@H]1Cc1ccccc1 | -77
Cc1cnn(-c2cccc(N3CCN(c4cc(C)nc(C)n4)CC3)n2)c1 | 7.82
O=C(O)CCc1cn(C2CCN(c3ncccc3Cl)CC2)nn1 | -49.3
c1cnc(N2C[C@H]3CN(CC4CCOC4)C[C@H]3C2)nc1 (stereo partly drawn) | -5.09
CC(C)NC(=O)N1CCC2(CC1)COc1ccccc1S(=O)(=O)N(C)C2 | 7.02
COc1cc(N2CCCC(c3nccn3Cc3cccnc3)C2)ncn1 (stereo not drawn) | -1.86
O=C1NC[C@@]2(C(=O)O)CN(Cc3cccc(OC4CCCC4)c3)C[C@@H]12 | -2.34
O=C(NCC(O)(c1ccco1)C1CC1)c1ccccc1F (stereo not drawn) | -1.16
Cc1cc(C)n(CC(C)NCc2cnc3c(C)cccn23)n1 (stereo not drawn) | 1.44
O=C(N[C@@H]1CCC[C@@H](N2CCOCC2)[C@@H]1O)c1ncccn1 | -25.9
Cc1nnc([C@@]23CCO[C@@H]2CCN(Cc2ccc4c(c2)OCO4)C3)o1 | -102
CC(C)Cc1cc(CN2C[C@@H]3CC[C@H]2CN(Cc2cscn2)C3)n[nH]1 | -2.03
CCc1csc(CNC2CCN(Cc3ccccc3)C2)n1 (stereo not drawn) | 4.82
CC(C)NC(=O)N1CCC2(CC(C(=O)NCc3cccnc3)=NO2)C1 (stereo not drawn) | -0.8
Cc1nc(C2CCCN2CC(=O)Nc2cc(C(C)(C)C)nn2C)no1 (stereo not drawn) | -10.9
COC(=O)C1CCN(C(=O)Cn2ccc(-c3ccccc3)n2)CC1 | -1.22
CC(=O)N1CCC(C(=O)NCc2cc[nH]n2)(c2ccccc2)CC1 | -0.037
Cc1ccc(-c2nc(CNCC3CN(C)CCO3)cs2)o1 (stereo not drawn) | -9.16
CCn1nccc1CNC(=O)C(C)n1cc2c(n1)c(C)nn2C (stereo not drawn) | 5.32
CCc1nnc(Nc2cccc(C3CCN(CC4CC4)CC3)n2)s1 | -26.8
Cn1cncc1-c1nnc([C@H]2CCN(Cc3ncc[nH]3)C2)o1 | 1.62
O=C(CNC(=O)C1CCCC1)NCc1cnn(-c2ccc(F)cc2F)c1 | 8.21
CCc1[nH]ncc1C(=O)N1CCCC(n2cncn2)C1 (stereo not drawn) | -18.9
CC1CN(CC(=O)NC2CCOCC2)CCN1Cc1nccn1C (stereo not drawn) | -6.57
